System: Chenopodium
assay overview: Pre-emergence test/greenhouse
Assay type: in vivo
measurement parameters: 60 g of ai./ha, after three weeks
value kind: Chenopodium, % damage (%)

structure_notation=CCOc1cccc(C)c1S(=O)(=O)NC(=O)Nc1nc(OC)cc(OC)n1 experimental_system=Chenopodium observed_value=95
structure_notation=COc1cc(Cl)nc(NC(=O)NS(=O)(=O)c2c(OC)cccc2C(F)(F)F)n1 experimental_system=Chenopodium observed_value=100
structure_notation=COc1nc(C)nc(NC(=O)NS(=O)(=O)c2c(C)cccc2OC(F)F)n1 experimental_system=Chenopodium observed_value=95
structure_notation=CCOc1cccc(C(F)(F)F)c1S(=O)(=O)NC(=O)Nc1nc(OC)nc(OC)n1 experimental_system=Chenopodium observed_value=100
structure_notation=COc1nc(NC(=O)NS(=O)(=O)c2c(OC(C)C)cccc2C(F)(F)F)nc(OC)n1 experimental_system=Chenopodium observed_value=100
structure_notation=CCCOc1cccc(C(F)(F)F)c1S(=O)(=O)NC(=O)Nc1nc(OC)nc(OC)n1 experimental_system=Chenopodium observed_value=100
structure_notation=CCCOc1cccc(C(F)(F)F)c1S(=O)(=O)NC(=O)Nc1nc(C)cc(C)n1 experimental_system=Chenopodium observed_value=100
structure_notation=CCCOc1cccc(C)c1S(=O)(=O)NC(=O)Nc1nc(C)cc(OC)n1 experimental_system=Chenopodium observed_value=100

All values here come from patent US6838414B2.
